Measured TGI accompanies every entry in the list below.
# Test system: HL-60(TB) leukemia
# Test: NCI tumour cell line growth inhibition, 48 h

INSERT INTO results (compound, obs_value) VALUES
  ('O=S1(=O)c2ccccc2N2CCCc3cc(Cl)cc1c32', '> 100 µM'),
  ('C=C(Br)CN(C#N)CC(=C)Br', '> 100 µM'),
  ('NNC(=O)c1ccccc1NC(=O)/C(=C/c1ccccc1)NC(=O)c1ccccc1', '> 100 µM'),
  ('CCCCCCCCOCC1S(=O)(=O)OCCOS1(=O)=O', '> 100 µM'),
  ('Cc1ccc2[nH]c(=O)c(-c3cnc(=O)[nH]n3)c(O)c2c1', '> 100 µM'),
  ('CN(C)CCOc1ccc(-c2c(Oc3ccc(Cl)cc3)c(=O)oc3ccccc23)cc1', '> 100 µM');

Query string: Read off the recorded TGI for `CC(=O)Nc1ccc(Nc2nc(=O)[nH]c(=O)[nH]2)cc1`
Result string: > 100 µM

Query string: Read off the recorded TGI for `COC(=O)c1c(O)ccc2c1c1c(n2C)C(=O)c2ccccc2C1=O`
Result string: > 100 µM

Query string: Read off the recorded TGI for CCN(CC)C(=O)CCCCCCCCC1CO1 (stereo not drawn)
Result string: > 100 µM

Query string: Read off the recorded TGI for S=C1CC(c2ccc(Cl)cc2)Sc2ccccc2N1 (stereo not drawn)
Result string: > 100 µM

Query string: Read off the recorded TGI for Nc1nc(N)c2ncn(CC(CO)CC(c3ccccc3)P(=O)(O)O)c2n1 (stereo not drawn)
Result string: > 100 µM

###

# Tested on: HL-60(TB) leukemia
# Test: NCI tumour cell line growth inhibition, 48 h
Measured TGI accompanies every entry in the list below.
Report the figure in µM without appending any unit label.

INSERT INTO assay_data (compound, obs_value) VALUES
  ('CCC(=O)N1C/C(=C/c2ccc(OC)cc2)C(=O)/C(=C/c2ccc(OC)cc2)C1', 53.1),
  ('COc1cccc(C2c3cc4c(cc3OC(N3CCOCC3)C2C)OCO4)c1O (configuration not stated)', 6.69),
  ('COc1cc2c(cc1OCCCC(=O)Nc1cc(C(=O)Nc3cc(C(=O)NCCCN(C)C)n(C)n3)n(C)n1)N=CC1CCCN1C2=O (configuration not stated)', 32.1),
  ('COc1cc(C(C#N)NNC(=O)c2ccccc2O)ccc1O (configuration not stated)', 19.4);

The record that follows has no TGI shown yet.
Query string: Read off the recorded TGI for `CC1=CC[C@@H]2C(C)(C)[C@@H](O)CC[C@@]2(C)[C@@H]1COc1ccc2ccc(=O)oc2c1`
Result string: 14

###

Measured TGI accompanies every entry in the list below.
# System: HL-60(TB) leukemia
# Test: NCI tumour cell line growth inhibition, 48 h

INSERT INTO measurements (compound, obs_value) VALUES
  ('CCCCCCCCCCCCC(SCCNC(=O)CCNC(=O)C(O)C(C)(C)COP(=O)(O)OP(=O)(O)OCC1OC(n2cnc3c(N)ncnc32)C(O)C1OP(=O)(O)O)C(=O)NCC(N)=O (configuration not stated)', '> 100 µM');

The record that follows has no TGI shown yet.
Query string: Read off the recorded TGI for `O=c1c(OC/C(=N/O)c2ccccc2)c(-c2ccccc2)oc2ccccc12`
Result string: > 50 µM

Values from PubChem BioAssay (NCI)
